This collection of values is drawn from patent US10351575B2.

Study System: Fgr (Homo sapiens (Human))
Sequence (P09769 whole entry): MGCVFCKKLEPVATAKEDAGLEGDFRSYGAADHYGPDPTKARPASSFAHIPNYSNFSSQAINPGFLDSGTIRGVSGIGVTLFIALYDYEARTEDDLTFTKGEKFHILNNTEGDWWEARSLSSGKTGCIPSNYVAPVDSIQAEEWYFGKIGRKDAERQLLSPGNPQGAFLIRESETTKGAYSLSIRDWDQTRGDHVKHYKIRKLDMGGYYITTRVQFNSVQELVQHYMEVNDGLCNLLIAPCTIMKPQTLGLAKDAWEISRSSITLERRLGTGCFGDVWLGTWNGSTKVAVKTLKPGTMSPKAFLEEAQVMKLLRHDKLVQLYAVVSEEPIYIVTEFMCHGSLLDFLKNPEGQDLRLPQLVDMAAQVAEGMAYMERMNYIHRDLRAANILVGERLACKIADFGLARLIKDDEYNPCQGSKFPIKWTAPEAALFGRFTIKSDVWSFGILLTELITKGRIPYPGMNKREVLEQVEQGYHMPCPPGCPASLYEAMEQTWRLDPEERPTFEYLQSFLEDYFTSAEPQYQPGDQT
Assay Name: KinaseProfiler off-target kinase profiling
Assay type: biochemical
Recorded Conditions: 10 μM, ATP near Km
Please respond with reported Avg. POC for every item in the list.
Provide only the numeric value, understood in POC.

Q: Lab note: need Avg. POC with Fgr (Homo sapiens (Human)) for entry COCc1ccc2c(c1)C(NC(=O)Nc1c(C)c(-c3cnn(C)c3)nn1-c1ccccc1)COC2 (stereo not shown) , please look it up.
Ans: 109.5

Q: Lab note: need Avg. POC with Fgr (Homo sapiens (Human)) for entry Cc1c(-c2cnn(C)c2)nn(-c2ccccc2)c1NC(=O)NC1CCOc2cc(F)ccc21 (stereo not shown) , please look it up.
Ans: 114.5

Q: Lab note: need Avg. POC with Fgr (Homo sapiens (Human)) for entry `Cc1c(-c2cnn(C)c2)nn(-c2ccccc2)c1NC(=O)N[C@H]1CCCc2ccccc21` , please look it up.
Ans: 131

Q: Lab note: need Avg. POC with Fgr (Homo sapiens (Human)) for entry Cc1c(-c2ccc(=O)n(C)c2)nn(-c2ccccc2)c1NC(=O)NC1CN(CC(F)(F)F)Cc2ccccc21 (stereo not shown) , please look it up.
Ans: 114.5

----------
Study System: CDK3/cyclinE (Homo sapiens (Human), UniProt Q00526)
Sequence (Q00526 whole entry): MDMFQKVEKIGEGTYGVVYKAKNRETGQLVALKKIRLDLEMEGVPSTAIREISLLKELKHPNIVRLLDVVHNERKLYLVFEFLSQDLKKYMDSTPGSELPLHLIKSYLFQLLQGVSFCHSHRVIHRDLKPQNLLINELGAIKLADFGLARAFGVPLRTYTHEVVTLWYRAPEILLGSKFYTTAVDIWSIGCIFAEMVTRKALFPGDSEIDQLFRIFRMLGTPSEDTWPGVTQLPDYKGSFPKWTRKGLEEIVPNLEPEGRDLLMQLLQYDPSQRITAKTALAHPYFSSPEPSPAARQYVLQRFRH
Sequence (P24864 whole entry partner): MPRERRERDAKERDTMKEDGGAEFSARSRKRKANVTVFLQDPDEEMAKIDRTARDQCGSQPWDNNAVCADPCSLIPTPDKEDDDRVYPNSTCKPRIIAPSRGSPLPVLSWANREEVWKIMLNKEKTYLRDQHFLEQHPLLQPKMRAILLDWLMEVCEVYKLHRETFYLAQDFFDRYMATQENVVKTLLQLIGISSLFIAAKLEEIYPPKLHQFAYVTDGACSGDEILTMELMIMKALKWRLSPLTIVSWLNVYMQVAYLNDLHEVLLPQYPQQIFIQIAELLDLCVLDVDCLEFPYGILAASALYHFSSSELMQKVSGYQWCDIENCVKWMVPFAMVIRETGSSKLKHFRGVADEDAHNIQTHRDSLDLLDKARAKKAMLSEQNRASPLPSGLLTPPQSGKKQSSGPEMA
Assay Name: KinaseProfiler off-target kinase profiling
Assay type: biochemical
Recorded Conditions: 10 μM, ATP near Km
Please respond with reported Avg. POC for every item in the list.

Q: Given the entry Cc1c(-c2ccc(=O)n(C)c2)nn(-c2ccccc2)c1NC(=O)NC1CN(CC(F)(F)F)Cc2ccccc21 (stereo not shown) , report its measured Avg. POC.
Ans: 101.5 POC

Q: Given the entry COCc1ccc2c(c1)C(NC(=O)Nc1c(C)c(-c3cnn(C)c3)nn1-c1ccccc1)COC2 (stereo not shown) , report its measured Avg. POC.
Ans: 102.5 POC

Q: Given the entry `Cc1c(-c2cnn(C)c2)nn(-c2ccccc2)c1NC(=O)N[C@H]1CCCc2ccccc21` , report its measured Avg. POC.
Ans: 105.5 POC

Q: Given the entry Cc1c(-c2cnn(C)c2)nn(-c2ccccc2)c1NC(=O)NC1CCOc2cc(F)ccc21 (stereo not shown) , report its measured Avg. POC.
Ans: 98.5 POC

----------
Study System: MYLK (Homo sapiens (Human))
Sequence (Q15746 whole entry): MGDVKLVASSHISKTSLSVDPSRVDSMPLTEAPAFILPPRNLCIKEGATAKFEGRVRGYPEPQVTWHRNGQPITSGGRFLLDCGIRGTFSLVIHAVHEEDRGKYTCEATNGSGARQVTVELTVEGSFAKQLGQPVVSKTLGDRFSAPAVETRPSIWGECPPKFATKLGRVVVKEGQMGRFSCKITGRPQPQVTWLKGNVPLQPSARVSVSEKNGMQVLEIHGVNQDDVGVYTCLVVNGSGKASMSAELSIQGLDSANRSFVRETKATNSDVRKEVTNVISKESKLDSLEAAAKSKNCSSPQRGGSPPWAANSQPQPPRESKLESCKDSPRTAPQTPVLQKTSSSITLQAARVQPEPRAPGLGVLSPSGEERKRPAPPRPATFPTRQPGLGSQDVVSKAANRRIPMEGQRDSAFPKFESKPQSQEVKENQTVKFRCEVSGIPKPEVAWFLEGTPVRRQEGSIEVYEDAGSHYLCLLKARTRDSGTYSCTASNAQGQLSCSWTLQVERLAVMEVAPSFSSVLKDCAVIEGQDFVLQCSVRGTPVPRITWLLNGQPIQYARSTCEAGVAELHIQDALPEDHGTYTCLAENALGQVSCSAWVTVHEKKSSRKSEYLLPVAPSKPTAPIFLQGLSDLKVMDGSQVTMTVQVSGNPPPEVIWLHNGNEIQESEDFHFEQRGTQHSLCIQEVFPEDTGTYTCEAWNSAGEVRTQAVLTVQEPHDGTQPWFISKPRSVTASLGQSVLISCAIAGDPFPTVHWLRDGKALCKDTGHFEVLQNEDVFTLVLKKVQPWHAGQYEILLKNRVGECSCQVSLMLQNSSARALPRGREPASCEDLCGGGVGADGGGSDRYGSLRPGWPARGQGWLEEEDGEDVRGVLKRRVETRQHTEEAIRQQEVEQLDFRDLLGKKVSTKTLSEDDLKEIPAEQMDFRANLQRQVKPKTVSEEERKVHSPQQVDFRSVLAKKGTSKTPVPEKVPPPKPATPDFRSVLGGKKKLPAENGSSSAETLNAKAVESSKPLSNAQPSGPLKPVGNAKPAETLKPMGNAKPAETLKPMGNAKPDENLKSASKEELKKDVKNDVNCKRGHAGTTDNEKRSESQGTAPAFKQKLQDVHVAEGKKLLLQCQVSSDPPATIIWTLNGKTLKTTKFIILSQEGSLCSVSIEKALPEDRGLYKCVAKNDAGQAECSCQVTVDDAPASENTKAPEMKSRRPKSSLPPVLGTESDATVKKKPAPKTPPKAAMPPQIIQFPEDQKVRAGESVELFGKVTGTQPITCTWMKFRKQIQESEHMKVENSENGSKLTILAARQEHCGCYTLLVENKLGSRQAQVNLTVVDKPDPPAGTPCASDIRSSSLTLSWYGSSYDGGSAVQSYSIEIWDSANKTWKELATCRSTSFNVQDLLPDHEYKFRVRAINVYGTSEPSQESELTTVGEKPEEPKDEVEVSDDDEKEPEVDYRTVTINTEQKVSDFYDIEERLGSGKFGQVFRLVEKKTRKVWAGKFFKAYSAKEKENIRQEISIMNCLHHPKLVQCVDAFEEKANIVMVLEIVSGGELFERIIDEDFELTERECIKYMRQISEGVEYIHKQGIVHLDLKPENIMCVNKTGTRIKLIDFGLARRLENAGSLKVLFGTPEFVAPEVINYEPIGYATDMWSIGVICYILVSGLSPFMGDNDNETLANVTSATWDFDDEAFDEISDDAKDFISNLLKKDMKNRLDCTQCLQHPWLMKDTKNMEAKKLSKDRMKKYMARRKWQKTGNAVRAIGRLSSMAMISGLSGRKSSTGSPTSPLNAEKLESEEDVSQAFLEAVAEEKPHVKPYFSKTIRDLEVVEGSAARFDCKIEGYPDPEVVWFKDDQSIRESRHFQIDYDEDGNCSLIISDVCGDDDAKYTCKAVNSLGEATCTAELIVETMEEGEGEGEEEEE
Assay Name: KinaseProfiler off-target kinase profiling
Assay type: biochemical
Recorded Conditions: 10 μM, ATP near Km
Attribute Measured: Avg. POC

Q: Lab note: need Avg. POC with MYLK (Homo sapiens (Human)) for entry Cc1c(-c2cnn(C)c2)nn(-c2ccccc2)c1NC(=O)NC1CCOc2cc(F)ccc21 (stereo not shown) , please look it up.
Ans: 99 POC

Q: Lab note: need Avg. POC with MYLK (Homo sapiens (Human)) for entry `Cc1c(-c2cnn(C)c2)nn(-c2ccccc2)c1NC(=O)N[C@H]1CCCc2ccccc21` , please look it up.
Ans: 100 POC

Q: Lab note: need Avg. POC with MYLK (Homo sapiens (Human)) for entry COCc1ccc2c(c1)C(NC(=O)Nc1c(C)c(-c3cnn(C)c3)nn1-c1ccccc1)COC2 (stereo not shown) , please look it up.
Ans: 97.5 POC

Q: Lab note: need Avg. POC with MYLK (Homo sapiens (Human)) for entry Cc1c(-c2ccc(=O)n(C)c2)nn(-c2ccccc2)c1NC(=O)NC1CN(CC(F)(F)F)Cc2ccccc21 (stereo not shown) , please look it up.
Ans: 101 POC
